Test: yeast display, Sf9 membrane polyspecificity reagent, FACS + sequencing; frameworks hold sequencing errors

query.sequence	polyreactivity (PSR sort gate)
QVQLVESGGGLVQAGGSLRLSCAASGRTFIVNAMGWYRQAPGKVRELVAAITKGARTYYADSVKGRFTISRDNAKNTVYLQRNSLKPEDTAVYYCNATRLGGNGTRHYYWGQGTQVTVSS	high polyreactivity
QVQLVESGGGLVQAGGSLRLSCAASGRISQIYARGWYRQAPGKERELVASISSSGSRTYYADSVKGRFTISRDHAKNTVYLQMNSLKPEDTAVYYCAATYLKVHGEYDYWGQGTQVTVSS	high polyreactivity
QVQLVESGGGLVQAGGSLRLSCVASGSIFRGNAMGWYRQAPGKERELVASISKGGGSTYYADSVKGRFIISRDNAKNTVYLQIHSLKPEDTAVYYCYKDYDRRDFYYWGLGTQVTVSS	low polyreactivity
QVQLVESGGGLVQAGGSLRLSCAASGSIFYYNAMGWYIQAPGKEREFVAAISSSGGSTYYADSVMGRFTISRDNAKNNVYLQMYRLKPEDTAVYYCAAKLRHWAHHTKYDYWGQGTQLTVSS	low polyreactivity
QVQLVESGGGLVQAGGSLRLSCAASGSIFDRYGMGLYRQAPGKETELVADITSDGSTNYADSLKGRFTISRDNAKNSVYLQMNSLKREDTAVYYCAVSYTAYYVGYDYWGQGTQVTVSS	low polyreactivity

---

Test: yeast display, Sf9 membrane polyspecificity reagent, FACS + sequencing; frameworks hold sequencing errors
recorded.metric: polyreactivity (PSR sort gate)

query.sequence	recorded.metric	result
QVHLVESGGGLVQAGGSLRLSCAASGRIFGPYTMGWYIQAPGKEREFVAAITRRGGSTYYADSVKGRFTISRDNAKNTVYLQMNSLKPEDTAVYSCAAGGQKRSLGYSWGQGTQVTVSS	polyreactivity (PSR sort gate)	low polyreactivity
QVQLVESAGGLVQAGGSLSLSCAASGFNFKGYAMGSYRQAPGKERELVAAISSSGTSTYYADSVKGRFTISRDNEKNTVYLQMNSLKPEDTAVYYCARVSKRTWSGYYYWGQGTQVTVSS	polyreactivity (PSR sort gate)	high polyreactivity
QVQLVESGGGLVQAGGSLRLICAASGRIFYFYAMGWYRQAPGKERELVAAISTSGGSTYYADSVKGRFTISRDNAKNTVYLQMNSLKPEDTAVYYCAARFRYYGSEYDYWGQGTQVTVSS	polyreactivity (PSR sort gate)	low polyreactivity
QVQQQESGGGLVQAGGSLRLSCAASGTIFQLTVMRRYRQAPGKERELVASIDYGGNTNYADSVKGRFTISRDNAKNTVYLQMNSLKPEDTAVYYCAASSDSWTTHPYWGQGTQVTVSS	polyreactivity (PSR sort gate)	low polyreactivity
QVQLVESGGGLLQAGGSLRLSCAASGFTIYGYGMGWYRQAPGKERELVAGITARGSSTYYADSVKGRFTISRDNAKNTVYLQMNSLKPEDTAVYYCNSVGARVASATGMEYWGQGTQVTVSS	polyreactivity (PSR sort gate)	high polyreactivity
QVQLVESGGGLVQAGGSLRLSCAASGFTIRRYAMGWYRQAPGKERALVAAITTGGSTYYADSVKGRFTISRDNAKNTVYLQMYSLKPEDTAVYYCATDTYPYPLYYSPGAYGYWGQGTQVTVSS	polyreactivity (PSR sort gate)	high polyreactivity
QVQLVESGGGLVQAGGRLRLSCAASGSIFYSNAMGWYRQAPGKERELVARITWSGGSTYYADSVKGRFTISRDNAKNTVYLQMNSLKPEDTAVYYCNKVIFRYFTTRPTRTYEYWGQGTQVTVSS	polyreactivity (PSR sort gate)	low polyreactivity
QVQLQESGGGLVQARGSLRLSCAASGYISHADEMGWYRQAPGKEHELVASFRNGGSTNYADSVKGRFTISRDNAKNTVYLQMNSLKSEDTAVYYCAAWTGQVDIHSYWCQGTQVTVSS	polyreactivity (PSR sort gate)	low polyreactivity
QVQLVESGGGLVHAVGSHRLSCTASGSTFVAYPMGWYRQAPGKERELVAAITSSGGRTYYADSVKGRFTISRDNSKNTVYLQINSLKPEDTAVYYCAAVTHGRYDWGQGTQVTVSS	polyreactivity (PSR sort gate)	high polyreactivity
QVQLVESGGGLVQAGGSLRLSCAASGSIFTVYTMGWYRQAPGKERELVAAINSRGGTTYYADSVKGRFTISRDNAKNTVYLQMNSLKPEDTAVYYCAAKQRPKSYGPGHYYWGQGTQVTVSS	polyreactivity (PSR sort gate)	high polyreactivity
QVQLVESGGGLVQAGGSLRLSCAASGRIFDQNAMGWYRQAPGKERELVAAITWSGGSTNYADSVKVRFTISRDNSKNTVYLLMNSLKTEDTAVYYCNKVSYGYSTYGYWGQGTQVTVSS	polyreactivity (PSR sort gate)	low polyreactivity

---

Assay: yeast display, Sf9 membrane polyspecificity reagent, FACS + sequencing; frameworks hold sequencing errors

query.sequence	polyreactivity (PSR sort gate)
QVQLVESGGGLVQAGGSLRLSCPASGRTMGGNAMGWYRQAPGKEREFVARISTRGVRKYYADSVKGRFTISRDNAKNTVYLQMNSLKPEDTAVYYCAKHVSYGHIGAYPDRDSWGQGTQVTVSS	low polyreactivity
QVQLVESGGGLVHAGGILRLSCAASGSTFTPNAMGWYRQAPGKEREFVAAITYSGGTTYNADSVKGRFTISRDNAKKTVYLQRNRLKPEDTAVYYCAAVYFLLYYEAYYYWGQGTQVNVSS	low polyreactivity
QVQLVESGGGLVQAGGSHRLSCAASGSTLTWYAMGWYRQAPWKEWELVDTISSSTGSTRYADSVKGRFTISRDNAKNSVYLRINSLKPDDTAVYYCAKAYALRYARGRARYDYDFWGQGTQVNVSS	low polyreactivity
QVQLVESGGGLVQAGGSLRLSCAASGSTFEAYAMGWYRQAPGKERELVAAITWSSGSTYYADSVKGRFTISRDNAKNTVYLQMNSLKPEDTAVYYCNKDWLAYDSLRVPSTIAFDYWGQGTQVTVSS	low polyreactivity
QVQLVESGGGLVQAGGSLRLSCAASGNIFSFYAMGWYRQAPGKERELVAAINWSGGDTYYADSVKGRFTISRDNAKNTVYLQMNSLKPEDTAVYYCAAEYYYQYYPGGYDYWGQGTQVTVSS	high polyreactivity
QVQIVESGGGLVQAGGSLRLSCAASGITLSYNAMGWYRPATEKDRELVAGISYSGGRTYYADSVKGRFTISRDNAKNTVYLQMYSLKPEVTAVYYCATDLYISFRYGGYFWGQGTQVTVSS	high polyreactivity
QVQLEDSGGGLVQAGGSLRLSCAASGRTFHRNAMGWYRQAPGKERELVAAITGSGGSTYYADSVKGRFTISRDNAKNTVYLQMNSLKPEDTAVYYCATYSYPERTGGQRTHYYWGQGTQVTVSS	high polyreactivity
QVQLLESGGGLVQAGGSLRLSCAASGFTFWYYAMGWYRQAPGKEREFVASISWNGGRTYYADSVKGRFTISRDNAMNTVYLQMNSLKPEDTAVYYCATRVIYSFTDFKGDYWGQGTQVTVSS	high polyreactivity
QVQLVESGGGLVQAGGSLRLSCAASGSTFSFYAMGRYRQAPGKERELVAAISSSGDGTYYADSVKGRFTISRDNAKKTVYLQMNSLKPEDTAVYYCATGSPSGDEWGMDYWGQGTQVTVSS	low polyreactivity
QVQLVESGGGLVQAGGSLRLSCAASGRILWFYAMGWYRQAPGKERELVAAISWNGGSTYYADSVKGRFTISRDNAKNTVYLQMNSLKPEDTAVYYCAARPFHIHLSLEYNYWGQGTQVTVSS	low polyreactivity
QVQLVESGGGLVQAGGSLRLSCAASGFTLLPNAMGWYRQAPGKERELVAAITASGGRTYYADSVKGRFTISRDNAKNTVYLQMNSLKPEDSAVYYCNAGVYYYYHYTRMDYWGQGTQVTVSS	low polyreactivity

---

Test: yeast display, Sf9 membrane polyspecificity reagent, FACS + sequencing; frameworks hold sequencing errors

query.sequence	polyreactivity (PSR sort gate)
QVQLVESGGGLVQAGGSLRLSCAASGRIFYPNAMGWYRQAPGKERELVAAITSGGRTYYADSVKGRFTISRDNAKNTVYLQMNSLKPEDTAVYYCNARYSFWRSGPGYQGVDYWGQGTQVTVSS	high polyreactivity
QVQLVESGGGLVQAGGSLSLSCAASGFTVKFYAMGWYRQAPGKERELVATISSRGTSTYYADSVKGRFTISRDNAKNTVYLQMNSLKPEDTAVYYCAAAWFPAYQYRYYYWGQGTQVTVSS	high polyreactivity

---

Experiment: yeast display, Sf9 membrane polyspecificity reagent, FACS + sequencing; frameworks hold sequencing errors

query.sequence	polyreactivity (PSR sort gate)
QVQLQESGGGLVQAGGSLRLSCAASGYISHADEMGWYRQAPGKEHELVASISNGGSTNYADSVKGRFTISRDNAKNPVNLQMNSLKSEDTAVYYCAALTGQVAIHYYWGQGTQVTVSS	low polyreactivity
QVQLVESGGGLVQAGGSLRLSCAASGSTFWYYAMGWYRQAPGKEREFVAAITTSAGRTYYADSVKGRFTISRDNAKNTVYLQMNSLKPEDTAVYYCAAEPRQYWEYNYWGQGTQVTVSS	high polyreactivity
QDQLVESGGGLVQAGGSLRLSCAASGSIIYAYAMGWYRQAPGKERELVAAISWTGGSTYYADSVKGRFTISRDNAKNTVYLQMNCLKPEDTAVYYCAATYYQVASFYVTRYDYWGQGTQVTVSS	low polyreactivity
QVQLVESGGGLVQAGGSLRLSCAASGNTFQYYAMGWYRQAPGKEREFVAAISRRGGSTYYADSVKGRFTISRDNAKNTVYLQMNSLKPEDTAVYYCNKVIFLSQSSYSFHYAYDYWGQGTQVTVSS	high polyreactivity
QVQLVESGGGLVQAGGSLRLSCAASGFTFPDYAMGWYRQAPGKERELVAGISSTGDSTYYADSGKGRYTISRDNAKNTGYLQRNSLKPEETAVYYCNAAQERPSIILFSKYDYWGQGTQETVSS	low polyreactivity
QVQLVESGGGLVQAGGSLRLSCAAYGRILSVYAMGWYRQAPGKERELVAAISSTGGTYYADSVKGRFTISRDNAKNTVYLQMNSLKPEDTADYYCAARYSTLTKYYWGQGTQVTVSS	low polyreactivity
QVQLVESGGGLVQAGGSLRLSCAASGSIFSYNVIGWYRQAPGKEREMVATITVDGTSTYYADSVKGRFTISRDNAKNTVYLQMNSLKPEDTAVYDCAADETASFTQEYEEMEYWGQGTQVTVSS	low polyreactivity
QVQLVESGGGLVQAGGSLRLSCAASGSTFRTNAMGWYRQAPGKERELVAGITSGTSTNYADSVKGRFTISRDNAKNTVYLQMNSLKPEDTAVYYCNTDRIWYGPEYDYWGQGTQVTVSS	low polyreactivity
QVQLVESGGGLVQAGGSLRLSCAASGIIFYYNAMGWYREAPGKEREFVASISSRGGSTYYADSVKGRFTISRDNSKNTVYLQMNSVKPEDTAVYYCAAAFDWRRQRYNYWGQGTQVTVTS	high polyreactivity
QVQLVESGGGLVQAGGSLRLSCAASGIFFIYSMGWYRQAPGKERELVADIDSGGPTYYADSVKGRFTISRDNAKNTVYLQMNSLKPEDTAVYYCAVDYSNVDLYSLLFYESDYWGQGTQVTVSS	low polyreactivity
QGQLVESGGGLLQAGGSLRLISAASGSTFPIYAMGWYRHAPRKERELVAAITWRGGSRKYYADSVKGRYTISRDNAKNTVYLQMNCLKPEDTAVYYCAAEYKWPLYGYWGQGTQVTVSS	low polyreactivity
QVQLVESGGGLVQAGGSLRLSCAASGFIFSAYAMGWYRQAPGKERELVAAITKRGGTTYYADSVKGRFTISRDNAKNTVYLQMNSLKPEDTAVYYCATRQLSKVKDMDYWGQGTQVTVSS	high polyreactivity
QVQLVESGGGLVQAGGTLRLSCAASGFTFTSNAMGWYRQEPGKERELVAAITSSGGITYYADSVKGRFTISRDNAKNTVYLQMNSLKPEDNAVYYCAASISSYNSPGYGYWGQGTQVTVSS	low polyreactivity
QVQLVESGGGLVQAGGSLRLSCAASGSTFTWYAMGWYRQAPGKEGELVAAISRGGSTNYADSVKGRFTISRDNAKNTVYLQMNSLKPEDTAVYYCAAESYWRDDYWGQGTQVTVSS	low polyreactivity
QVQLVESGGGLVQAGGSLRLSCAASGLIFYVYARGWYRQAPGKERELVAAIRYRGGTTHYADSVKGRFTISRDNAKNTVYLQMNSLKPEDTAVYYCAADGYVYRSGRRYDYWGQGTQVTVSS	high polyreactivity
QVQLVESGGGLVHAGGSLRLSCAASGIIFDDYAMGSYRQPPGKERELVAAISGRGGRTYYADSVKGRFTISRDNAKNTVYLQMNSLKPEDTAVYYCAGGGRVRYDYWGQGTQVTVSS	low polyreactivity
QVQLVESGGGLVQAGGSLRLSCAASGSTFVQNTMGWYRQAPGKERELVAAITRGGSTSYADSVKGRFTISRDNAKNTVYLQMNSLKPEDTAVYYCNAKSRSPTYRYRSWPYNYWGQGTQVTVSS	high polyreactivity
QVQLVESGGGLVQAGGSLRLSCAASGRIFYYYAMGWYRQAPGKEREFVAAISQRGGSTSYADSVKGRFTISRDNAKNTVYLQMNSLKPEDTAVYYCAAEYYLRVSGRTYVTSHDYWGQGTQVTVSS	high polyreactivity
QVQLVESGGGLVQAGGSLRLSCAASGRILRYYAMGWYRQAPGKERELVAVITSSDGSTYYADSVKGRFTISRDNAKNTVYLQMNSLKPEDTAVYYCAADYHWYRRPGYNYWGQGTQVTVSS	low polyreactivity
QVQLVESGGGLVQAGGSLRLSCAASGITFERNAMGWYRQAPGKERELVAAITGRGTSTYADSVKGRFTISRDNAKNTVYLQMNSLKPEDTAVYYCAAVGWFADFLFSDINGYYWGQGTQVTVSS	low polyreactivity
QVQLVESGGGLVQAGGSLRLSCAASGSTVDANAMGWYRPAPGKERELVATISDGGSTNYADSVKGRFTISRDNAKKTVYVQKNSLKPEDTAVYYCAAVKLFLGLGYDYWGQGTQVTVSS	low polyreactivity
